Test system: human colorectal cancer HT-29 cells
Assay: Inhibitory effect on growth of human cancer cells (in vitro), WST-8
Assay type: cell-based
Conditions: Homo sapiens, HT-29, 96 h, 96 hours culture, read-out: IC50 (nM) HT29
Under this convention, true (1) denotes IC50 strictly below 7 nM and false (0) denotes IC50 at or above 7 nM.

Solved cases below.
>>> print(df.to_string())
                                   molecule  class_name
0  Cc1c(-c2nnn(CCO)n2)[nH]c(CO)c1C(=O)c1cccc(Br)c1 [Compound 121]   false (0)
1  Cc1[nH]c(-c2nnc(C3CC3)o2)c(C)c1C(=O)c1cccc(OCCN)c1 [Compound 253]   false (0)
2  CCc1nnc(-c2c(C)c(C(=O)c3cccc(Br)c3)c(C)n2C(=O)c2ccccc2)o1 [Compound 237]    true (1)
3  Cc1c(-c2nnn(CCN)n2)[nH]c(CO)c1C(=O)c1cccc(Br)c1 [Compound 280]   false (0)
4  Cc1c(-c2nnn(CCO)n2)[nH]c(C(C)(C)O)c1C(=O)c1cccc(Br)c1 [Compound 285]   false (0)

Input: Is IC50 of Cc1[nH]c(-c2nnc(C(C)C)o2)c(C)c1C(=O)c1cccc(Br)c1 [Compound 178] strictly below 7 nM?
Output: false (0)

Input: Is IC50 of COc1ccc(C(=O)c2c(/C=N\O)[nH]c(-c3nnn(CCOC(C)=O)n3)c2C)cc1Br [Compound 170] strictly below 7 nM?
Output: false (0)

Input: Is IC50 of CCc1nnc(-c2c(C)c(C(=O)c3cccc(Br)c3)c(C)n2S(C)(=O)=O)o1 [Compound 225] strictly below 7 nM?
Output: true (1)

Input: Is IC50 of Cc1[nH]c(-c2nnn(CCO)n2)c(C)c1C(=O)c1cccc(C2CC2)c1 [Compound 115] strictly below 7 nM?
Output: false (0)

Input: Is IC50 of CC(=O)OCCc1nnc(-c2[nH]c(C)c(C(=O)c3cccc(Br)c3)c2C)o1 [Compound 204] strictly below 7 nM?
Output: true (1)

Input: Is IC50 of Cc1[nH]c(-c2nnn(CCO)n2)c(Br)c1C(=O)c1cccc(Br)c1 [Compound 288] strictly below 7 nM?
Output: true (1)

Input: Is IC50 of Cc1[nH]c(-c2nnc(C3CC3)o2)c(C)c1C(=O)c1ccc(OCCN(C)C)c(Br)c1 [Compound 257] strictly below 7 nM?
Output: false (0)

Input: Is IC50 of COc1ccc(C(=O)c2c(CO)[nH]c(-c3nnn(CCOC(C)=O)n3)c2C)cc1Br [Compound 128] strictly below 7 nM?
Output: false (0)

Input: Is IC50 of COc1ccc(C(=O)c2c(CO)[nH]c(-c3nnc(C4CC4)o3)c2C)cc1Br [Compound 266] strictly below 7 nM?
Output: true (1)

Input: Is IC50 of Cc1[nH]c(-c2nnn(CCO)n2)c(C)c1C(=O)c1cccc(Br)c1 [Compound 102] strictly below 7 nM?
Output: false (0)

Input: Is IC50 of Cc1[nH]c(-c2nnc(C3CC3)o2)c(C)c1C(=O)c1cccc([N+](=O)[O-])c1 [Compound 196] strictly below 7 nM?
Output: true (1)

Input: Is IC50 of COc1ccc(Br)cc1C(=O)c1c(CO)[nH]c(-c2nnc(C3CC3)o2)c1C [Compound 259] strictly below 7 nM?
Output: false (0)

====

Test system: human colorectal cancer HT-29 cells
Experiment: Inhibitory effect on growth of human cancer cells (in vitro), WST-8
Format: cell-based
Details: Homo sapiens, HT-29, 96 h, 96 hours culture, read-out: IC50 (nM) HT29
Under this convention, t denotes IC50 strictly below 40 nM and f denotes IC50 at or above 40 nM.

Solved cases below.
>>> print(df.to_string())
                                smiles_text  class_name
0  Cc1noc(-c2[nH]c(C)c(C(=O)c3cccc(Br)c3)c2C)n1           f
1  COc1ccc(C(=O)c2c(C)[nH]c(-c3nnn(CCO)n3)c2C)cc1Br           t
2  Cc1[nH]c(-c2nnc(C3CC3)o2)c(C)c1C(=O)c1ccc(OCCN)c(Br)c1           t
3  Cc1[nH]c(-c2nnc(C3CC3)o2)c(C)c1C(=O)c1cc(Br)ccc1O           t
4  CC(=O)OCCn1nnc(-c2[nH]c(CCl)c(C(=O)c3cccc(Br)c3)c2C)n1           t
5  Cc1[nH]c(-c2nnc(CO)o2)c(C)c1C(=O)c1cccc(Br)c1           f

Input: Is IC50 of `COc1ccc(Br)cc1C(=O)c1c(C=O)[nH]c(-c2nnc(C3CC3)o2)c1C` strictly below 40 nM?
Output: t

Input: Is IC50 of `CCc1nnc(-c2[nH]c(C)c(C(=O)c3cccc([N+](=O)[O-])c3)c2C)o1` strictly below 40 nM?
Output: t

Input: Is IC50 of `Cc1[nH]c(-c2nnc(C3CC3)o2)c(C)c1C(=O)c1ccc(O)c(Br)c1` strictly below 40 nM?
Output: t

Input: Is IC50 of `Cc1c(-c2nnc(C3CC3)o2)[nH]c(C2SCCCS2)c1C(=O)c1cccc(Br)c1` strictly below 40 nM?
Output: f

Input: Is IC50 of `Cc1c(-c2nnc(C3CC3)o2)[nH]c(C=O)c1C(=O)c1cccc(Br)c1` strictly below 40 nM?
Output: t

Input: Is IC50 of `Cc1c(-c2nnn(CCO)n2)[nH]c(C#N)c1C(=O)c1cccc(Br)c1` strictly below 40 nM?
Output: f

Input: Is IC50 of `CNC(=O)c1[nH]c(-c2nnn(CCN)n2)c(C)c1C(=O)c1cccc(Br)c1` strictly below 40 nM?
Output: f

Input: Is IC50 of `COc1ccc(Br)cc1C(=O)c1c(C)[nH]c(-c2nnc(C3CC3)o2)c1C` strictly below 40 nM?
Output: t

Input: Is IC50 of `COc1ccc(C(=O)c2c(C(N)=O)[nH]c(-c3nnn(CCO)n3)c2C)cc1Br` strictly below 40 nM?
Output: f

Input: Is IC50 of `COc1ccc(C(=O)c2c(CO)[nH]c(-c3nnn(CCO)n3)c2C)cc1Br` strictly below 40 nM?
Output: t

Input: Is IC50 of `Cc1c(-c2nnc(C3CC3)o2)[nH]c(C(F)F)c1C(=O)c1cccc(Br)c1` strictly below 40 nM?
Output: t

====

Tested on: human colorectal cancer HCT116 cells
Experiment: Inhibitory effect on growth of human cancer cells (in vitro), WST-8
Type: cell-based
Settings: Homo sapiens, HCT-116, 96 h, 96 hours culture
// log10 of IC50 lookup, one value per entry
For clarity, the numbers are log10 values of IC50 expressed in nM.

Illustrative cases are given below, each with its answer.
In [3]: df
Out[3]:
                                   compound  observed_measurement
0  COc1ccc(C(=O)c2c(C#N)[nH]c(-c3nnn(CCOC(C)=O)n3)c2C)cc1Br [Compound 138]                  2.22
1  COc1ccc(C(=O)c2c(CN3CCCCC3)[nH]c(-c3nnc(C4CC4)o3)c2C)cc1Br [Compound 270]                  2.91
2  CCn1nnc(-c2[nH]c(C)c(C(=O)c3ccc(OC)c(Br)c3)c2C)n1 [Compound 109]                  0.30
3  CC(=O)OCCn1nnc(-c2[nH]c(CCl)c(C(=O)c3cccc(Br)c3)c2C)n1 [Compound 171]                  1.58
4  Cc1c(-c2nnc(C3CC3)o2)[nH]c(C=O)c1C(=O)c1cccc(Br)c1 [Compound 261]                  1.95
5  COc1ccc(C(=O)c2c(C(F)F)[nH]c(-c3nnn(CCOC(C)=O)n3)c2C)cc1Br [Compound 126]                  1.58
6  COC(=O)c1[nH]c(-c2nnn(CCO)n2)c(C)c1C(=O)c1cccc(Br)c1 [Compound 137]                  2.27

Now take the following compound into account.
Sure, the documented log10 of IC50 for COc1cccc(C(=O)c2c(C)[nH]c(-c3nnn(CCO)n3)c2C)c1 [Compound 107] is 1.44

====

Test system: human colorectal cancer HCT116 cells
Assay: Inhibitory effect on growth of human cancer cells (in vitro), WST-8
Format: cell-based
Details: Homo sapiens, HCT-116, 96 h, 96 hours culture
// log10 of IC50 lookup, one value per entry
For clarity, the numbers are log10 values of IC50 expressed in nM.

Illustrative cases are given below, each with its answer.
In [3]: df
Out[3]:
                                smiles_text   readout_name  observed_measurement
0  Cc1[nH]c(-c2nnc(CO)o2)c(C)c1C(=O)c1cccc(Br)c1  log10 of IC50                  1.69
1  Cc1[nH]c(-c2nnc(C3CCC3)o2)c(C)c1C(=O)c1cccc(Br)c1  log10 of IC50                  2.52
2  Cc1[nH]c(-c2nnc(CN)o2)c(C)c1C(=O)c1cccc(Br)c1  log10 of IC50                  2.46

Sure, the documented log10 of IC50 for `CC(=O)OCCn1nnc(-c2[nH]c(C)c(C(=O)c3cccc(Br)c3)c2C)n1` is 0.93

Sure, the documented log10 of IC50 for `Cc1c(-c2nnn(CCO)n2)[nH]c(C#N)c1C(=O)c1cccc(Br)c1` is 2.20
